assay: AUC (0 to infinity) in ICR mouse at 50 mg/kg, po; type: ADME, organism-based; parameters: route oral, time infinity, dose 50 mg/kg; details: in vivo
MEASUREMENT_TYPE: AUC(0-inf) (ng·h/mL)

The cases that follow already have their AUC(0-inf) on record.
MOLECULE	AUC(0-inf), ng·h/mL
N#CC1CC(=O)N(c2cnn3c2CN(C(=O)Nc2cc(F)c(F)c(F)c2)C(C2CC2)C3)C1 (stereo unspecified)	10600
O=C1CC(Oc2ncccn2)CN1c1cnn2c1CN(C(=O)Nc1cc(F)c(F)c(F)c1)C(C1CC1)C2 (stereo unspecified)	4020
Cc1nc(C2CC(=O)N(c3cnn4c3CN(C(=O)Nc3cc(F)c(F)c(F)c3)C(C3CC3)C4)C2)no1 (stereo unspecified)	3860
C[C@H]1Cn2ncc(N3CC(c4ccccc4)CC3=O)c2CN1C(=O)Nc1cc(F)c(F)c(F)c1 (stereo partly specified)	6510

A. O=C1CC(c2ncco2)CN1c1cnn2c1CN(C(=O)Nc1cc(F)c(F)c(F)c1)C(C1CC1)C2 (stereo unspecified)
B. O=C1CC(c2ncccn2)CN1c1cnn2c1CN(C(=O)Nc1cc(F)c(F)c(F)c1)C(C1CC1)C2 (stereo unspecified)
[in] I'm curious, which of these has a smaller AUC(0-inf) number: A or B ? Kindly state the label of the option you pick.
[out] B

###

experiment: Cytotoxicity against human HepG2.2.15 cells assessed as reduction in cell viability by CellTiter-Glo reagent based assay; type: toxicity, HepG2 2.2.15
MEASUREMENT_TYPE: CC50

MOLECULE	RECORDED_RESULT
O=C1CC(Oc2ncccn2)CN1c1cnn2c1CN(C(=O)Nc1cc(F)c(F)c(F)c1)C(C1CC1)C2 (stereo not given)	> 200 µM

[in] Need CC50 of O=C1CC(c2ncccn2)CN1c1cnn2c1CN(C(=O)Nc1cc(F)c(F)c(F)c1)C(C1CC1)C2 (stereo not given) , thanks.
[out] > 200 µM

[in] Now try C[C@H]1Cn2ncc(N3CC(c4ccccc4)CC3=O)c2CN1S(=O)(=O)Nc1cc(F)c(F)c(F)c1 (stereo not given in full) .
[out] > 2 µM

[in] Now try Cc1nc(C2CC(=O)N(c3cnn4c3CN(C(=O)Nc3cc(F)c(F)c(F)c3)C(C3CC3)C4)C2)no1 (stereo not given) .
[out] > 200 µM

[in] Now try CC1CCn2ncc(N3CC(c4ccccc4)CC3=O)c2CN1C(=O)Nc1cc(F)c(F)c(F)c1 (stereo not given) .
[out] > 2 µM

[in] Now try O=C1CC(c2ccccc2)CN1c1cnn2c1CN(C(=O)Nc1cc(F)c(F)c(F)c1)C(Cc1ccccc1)C2 (stereo not given) .
[out] > 2 µM

[in] Now try N#CC1CC(=O)N(c2cnn3c2CN(C(=O)Nc2cc(F)c(F)c(F)c2)C(C2CC2)C3)C1 (stereo not given) .
[out] > 200 µM

[in] Now try C[C@H]1Cn2ncc(N3CC(c4ccccc4)CC3=O)c2CN1C(=S)Nc1cc(F)c(F)c(F)c1 (stereo not given in full) .
[out] > 2 µM

[in] Now try C[C@H]1Cn2ncc(N3CC(c4ccccc4)CC3=O)c2CN1CC(=O)Nc1cc(F)c(F)c(F)c1 (stereo not given in full) .
[out] > 2 µM

[in] Now try CC1(C)CN(C(=O)Nc2cc(F)c(F)c(F)c2)Cc2c(N3CC(C#N)CC3=O)cnn21 (stereo not given) .
[out] > 200 µM
